Task for the reader: assign each of the following binders its reported Kd.
Molecular target: T1, recombinant human DLL4 (C-terminally His-tagged extracellular domain, R&D Systems) (human, UniProt Q9NR61 25-522, biotinylated in the competition ELISA)
T1 construct: also called rhDLL4; hDLL4
T1 sequence (Q9NR61 25-522): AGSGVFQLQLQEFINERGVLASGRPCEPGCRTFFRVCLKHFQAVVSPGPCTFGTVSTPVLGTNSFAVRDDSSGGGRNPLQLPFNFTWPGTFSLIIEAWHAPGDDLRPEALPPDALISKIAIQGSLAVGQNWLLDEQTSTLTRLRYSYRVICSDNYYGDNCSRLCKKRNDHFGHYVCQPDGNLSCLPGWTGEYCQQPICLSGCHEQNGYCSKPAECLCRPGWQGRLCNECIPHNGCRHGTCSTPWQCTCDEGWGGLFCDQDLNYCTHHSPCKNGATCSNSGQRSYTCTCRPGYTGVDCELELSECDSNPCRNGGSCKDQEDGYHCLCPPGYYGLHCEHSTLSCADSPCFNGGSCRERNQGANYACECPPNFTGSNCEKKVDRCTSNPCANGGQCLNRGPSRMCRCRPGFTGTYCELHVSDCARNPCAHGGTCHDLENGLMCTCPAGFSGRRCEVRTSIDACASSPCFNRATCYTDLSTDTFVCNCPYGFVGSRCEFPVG
Assay: SPR (Biacore); summary table
Quick note: give the figure in nM, leave out the unit.

## Task # lookup: Kd of DLLBII129B05 (VHH, not shown: small tags and cut ends) VHH: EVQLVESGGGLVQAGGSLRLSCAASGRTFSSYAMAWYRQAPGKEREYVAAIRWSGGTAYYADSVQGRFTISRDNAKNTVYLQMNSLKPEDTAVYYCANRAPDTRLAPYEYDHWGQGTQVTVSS
## Result 0.3

## Task Next entry: DLLBII136C07 (VHH, not shown: small tags and cut ends) VHH: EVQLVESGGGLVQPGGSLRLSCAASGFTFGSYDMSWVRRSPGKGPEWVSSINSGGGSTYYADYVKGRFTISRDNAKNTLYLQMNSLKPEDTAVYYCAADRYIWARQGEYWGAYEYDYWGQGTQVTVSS
## Result 0.6

## Task Next entry: DLLBII133G05 (VHH, not shown: small tags and cut ends) VHH: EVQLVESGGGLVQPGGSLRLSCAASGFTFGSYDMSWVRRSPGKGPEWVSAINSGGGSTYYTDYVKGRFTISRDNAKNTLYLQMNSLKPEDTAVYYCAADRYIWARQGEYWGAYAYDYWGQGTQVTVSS
## Result 0.8

## Task Next entry: DLLBII133A09 (VHH, not shown: small tags and cut ends) VHH: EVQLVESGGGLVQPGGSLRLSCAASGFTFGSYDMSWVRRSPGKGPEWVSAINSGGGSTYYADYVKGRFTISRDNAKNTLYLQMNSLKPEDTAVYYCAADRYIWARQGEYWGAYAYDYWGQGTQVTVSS
## Result 2.1

## Task Next entry: DLLBII015 (VHH, not shown: small tags and cut ends) VHH: EVQLVESGGGLVQPGGSLRLSCAASGFTIGSYDMSWVRRSPGKGPEWVSAINSGGGSTYYADYVKGRFTISRDNAKNTLYLQMNSLKPEDTAVYYCAADRYIWARQGEYWGAYAYDYWGQGTQVTVSS
## Result 1

## Task Next entry: DLLBII129E11 (VHH, not shown: small tags and cut ends) VHH: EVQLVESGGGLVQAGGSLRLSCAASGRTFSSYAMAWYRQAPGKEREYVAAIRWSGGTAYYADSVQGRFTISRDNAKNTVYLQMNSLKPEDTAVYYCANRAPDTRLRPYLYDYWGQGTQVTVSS
## Result 0.5

## Task Next entry: DLLBII101G08 (VHH, not shown: small tags and cut ends, parent VHH; also called 101G08 (wt); 101G8) VHH: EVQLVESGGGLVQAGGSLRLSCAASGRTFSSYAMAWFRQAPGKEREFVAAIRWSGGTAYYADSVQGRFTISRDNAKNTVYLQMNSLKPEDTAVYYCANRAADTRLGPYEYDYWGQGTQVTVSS
## Result 48

## Task Next entry: DLLBII129H07 (VHH, not shown: small tags and cut ends) VHH: EVQLVESGGGLVQAGGSLRLSCAASGRTFSSYAMAWYRQAPGKEREYVAAIRWSGGTAYYADSVQGRFTISRDNAKNTVYLQMNSLKPEDTAVYYCANRAPDTRLEPYEYDYWGQGTQVTVSS
## Result 0.5

## Task Next entry: DLLBII129D08 (VHH, not shown: small tags and cut ends) VHH: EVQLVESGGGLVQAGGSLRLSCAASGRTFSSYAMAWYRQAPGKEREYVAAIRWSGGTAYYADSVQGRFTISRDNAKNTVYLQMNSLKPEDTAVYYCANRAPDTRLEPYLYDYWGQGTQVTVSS
## Result 0.4

## Task Next entry: DLLBII115A05 (VHH, not shown: small tags and cut ends, parent VHH; also called 115A05 (wt); 115A5) VHH: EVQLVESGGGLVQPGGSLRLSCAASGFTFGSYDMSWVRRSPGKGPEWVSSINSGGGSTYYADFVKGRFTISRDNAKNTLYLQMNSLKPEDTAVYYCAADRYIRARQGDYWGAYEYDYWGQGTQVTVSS
## Result 16

## Task Next entry: DLLBII130F06 (VHH, not shown: small tags and cut ends) VHH: EVQLVESGGGLVQAGGSLRLSCAASGRTFSSYAMAWYRQAPGKEREYVAAIRWSGGTAYYADSVQGRFTISRDNAKNTVYLQMNSLKPEDTAVYYCANRAPDTRLAPYEYDYWGQGTQVTVSS
## Result 0.4

## Task Next entry: DLLBII129A03 (VHH, not shown: small tags and cut ends) VHH: EVQLVESGGGLVQAGGSLRLSCAASGRTFSSYAMAWFRQAPGKEREYVAAIRWSGGTAYYADSVQGRFTISRDNAKNTVYLQMNSLRPEDTAVYYCANRAPDTRLRPYLYDYWGQGTQVTVSS
## Result 0.5

## Task Next entry: DLLBII130B03 (VHH, not shown: small tags and cut ends) VHH: EVQLVESGGGLVQAGGSLRLSCAASGRTFSSYAMAWYRQAPGKEREYVAAIRWSGGTAYYADSVQGRFTISRDNAKNTVYLQMNSLKPEDTAVYYCANRAPDTRLAPYLYDYWGQGTQVTVSS
## Result 0.3

Where do these numbers come from? They come from patent US20140120095A1.
